Test system: SK-OV-3 ovarian
Assay: NCI tumour cell line growth inhibition, 48 h
READOUT_LABEL: TGI

[
  {
    "COMPOUND": "O=C(Nc1ccc(S(=O)(=O)Nc2ncccn2)cc1)c1c2ccccc2nc2ccccc12",
    "TEST_VALUE": "> 100 µM"
  },
  {
    "COMPOUND": "CC(=O)NC1C(OCc2ccccc2)OC(CO)C(O)C1OCC(=O)N1CCCC1C(=O)NC(CCC(=O)NCCCCCNc1c2ccccc2nc2cccc([N+](=O)[O-])c12)C(N)=O (centres undefined)",
    "TEST_VALUE": "0.538 µM"
  },
  {
    "COMPOUND": "NNC(=S)N/N=C(/C(=O)Nc1ccc([N+](=O)[O-])cc1)c1nc2ccc([N+](=O)[O-])cc2[nH]c1=O",
    "TEST_VALUE": "> 100 µM"
  },
  {
    "COMPOUND": "Cc1cc(C(O)CNC(C)CCn2cnc3c2c(=O)n(C)c(=O)n3C)ccc1O (centres undefined)",
    "TEST_VALUE": "> 100 µM"
  },
  {
    "COMPOUND": "COC(=O)C1=C(c2ccc(Cl)cc2)C(O)N=C(NN)N1 (centres undefined)",
    "TEST_VALUE": "> 100 µM"
  },
  {
    "COMPOUND": "Cc1ccc(-n2cc(-c3ccc(Cl)cc3)c(C#N)c2N)cc1",
    "TEST_VALUE": "43.4 µM"
  },
  {
    "COMPOUND": "Nc1cc(N)c(N=Nc2cccc3c(S(=O)(=O)O)cccc23)cc1N=Nc1cc([N+](=O)[O-])ccc1O",
    "TEST_VALUE": "> 100 µM"
  },
  {
    "COMPOUND": "Oc1ccc(Cn2c(-c3ccc(O)cc3)nc3ccccc32)cc1",
    "TEST_VALUE": "> 100 µM"
  },
  {
    "COMPOUND": "Cc1nc2nn(C)cc2c(=O)n1/N=C/c1ccccc1",
    "TEST_VALUE": "> 100 µM"
  },
  {
    "COMPOUND": "COc1ccc(OC)c(/C=N/N=C2\\C(=O)Nc3c(Cl)cc(Cl)cc32)c1",
    "TEST_VALUE": "> 100 µM"
  }
]

For each of the items listed, what is its TGI?
1. CCOC(=O)NC(=S)NC(C)c1ccccc1 (centres undefined)
2. Cc1cn2c(/C=C3/C(=O)Nc4ccccc43)c(C)nc2s1
3. COc1cccc(C(=O)N[C@@H]2[C@H](O)[C@@H](CO)O[C@H]2n2cnc3c(N)ncnc32)c1

1. > 100 µM
2. 25.7 µM
3. > 100 µM

Provide the reported TGI of each entry below, same order.
1. COc1ccc(/C=N\O[Si](C)(C)C(C)(C)C)cc1O[Si](C)(C)C(C)(C)C
2. COc1nc(OC)nc(Sc2ccc(Sc3ccc(Sc4nc(OC)nc(OC)n4)cc3)cc2)n1
3. NCCC1([N+](=O)[O-])CCNCC1
4. O=C(NC1C=Nc2ccccc2NC1=O)c1ccccc1Cl (centres undefined)

46.5 µM
> 100 µM
> 100 µM
> 100 µM

Give one value of TGI per listed compound.
1. Cc1cn(Cc2ccccc2CCl)c(=O)n(Cc2ccccc2CCl)c1=O
2. OC1c2ccccc2C2C(O)c3ccccc3C12 (centres undefined)

1: 9.62 µM; 2: > 100 µM
